assay: Bioavailability of phenylephrine: plasma levels after delivery to the colon via Enterion capsules or oral Sudafed PE; assay type: in vivo, human; conditions: both sexes, human, plasma, oral; 10 mg to colon via Enterion capsule (Regimen A); 0.25 h post-dose; read-out: Mean plasma concentration (Unconjugated)
Structures can show the parent of a compound that is named as a salt.
Measure: concentration at […] (ng/mL)

INSERT INTO results (compound, measure, units_label, readout_value) VALUES
  ('CNC[C@H](O)c1cccc(O)c1 [Phenylephrine hydrochloride, phenylephrine hydrochloride]', 'concentration at […]', 'ng/mL', 0.304);

====

test: Bioavailability of phenylephrine: plasma levels after delivery to the colon via Enterion capsules or oral Sudafed PE; assay type: in vivo, human; conditions: both sexes, human, plasma, oral; 10 mg PE-colon (Regimen A) n = 8; mean ± SD; read-out: Frel last (bioavailability relative to immediate release oral formulation), unconjugated Phenylephrine
Counter-ions that a name gives are not always drawn.
Measure: bioavailability (%)

INSERT INTO measurements (compound, measure, readout_value) VALUES
  ('CNC[C@H](O)c1cccc(O)c1 [Phenylephrine hydrochloride, phenylephrine hydrochloride]', 'bioavailability', 332);

====

assay: Bioavailability of phenylephrine: plasma levels after delivery to the colon via Enterion capsules or oral Sudafed PE; assay type: in vivo, human; settings: both sexes, human, plasma, oral; 30 mg to colon via Enterion capsule (Regimen C); 16 h post-dose; read-out: Mean plasma concentration (Unconjugated)
Where a name gives a salt, the structure may show the parent alone.
Measure: concentration at 16 h (ng/mL)

INSERT INTO measurements (molecule, readout_value) VALUES
  ('CNC[C@H](O)c1cccc(O)c1 [Phenylephrine hydrochloride, phenylephrine hydrochloride]', 0.196);
